Entry source: paper PMC6889762

target: acetylcholinesterase (AChE) (Electrophorus electricus)
Sequence (O42275 24-633): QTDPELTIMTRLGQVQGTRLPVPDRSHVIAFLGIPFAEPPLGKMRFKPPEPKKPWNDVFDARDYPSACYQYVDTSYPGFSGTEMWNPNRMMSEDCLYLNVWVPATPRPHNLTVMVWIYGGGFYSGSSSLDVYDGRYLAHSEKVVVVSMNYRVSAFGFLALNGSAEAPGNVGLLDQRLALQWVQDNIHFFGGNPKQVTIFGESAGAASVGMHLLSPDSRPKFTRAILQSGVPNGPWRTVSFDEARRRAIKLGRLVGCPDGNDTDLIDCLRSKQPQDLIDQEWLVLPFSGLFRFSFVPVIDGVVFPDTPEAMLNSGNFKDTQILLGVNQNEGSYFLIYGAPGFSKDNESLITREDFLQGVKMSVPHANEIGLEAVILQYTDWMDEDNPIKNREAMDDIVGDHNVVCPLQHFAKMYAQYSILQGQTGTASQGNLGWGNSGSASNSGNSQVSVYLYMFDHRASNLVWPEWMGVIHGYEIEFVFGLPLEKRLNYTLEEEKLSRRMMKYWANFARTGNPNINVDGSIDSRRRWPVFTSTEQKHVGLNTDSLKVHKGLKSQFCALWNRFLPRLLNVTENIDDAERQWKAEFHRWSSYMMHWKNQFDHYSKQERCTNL
endpoint.name: pKi
pKi here is simply -log10 of the concentration when that concentration is written in mol/L.

Record CC(=O)c1c(O)c(C)c(O)c2c1OC1=CC(=O)C(C(C)=O)C(=O)C12C (stereo not shown) [Usnic acid] , field pKi: 9.62

###

endpoint.name: IC50 (nM)
Give your result in nM as a bare value.

IC50 of CC(=O)c1c(O)c(C)c(O)c2c1OC1=CC(=O)C(C(C)=O)C(=O)C12C (stereo not shown) , assay on butyrylcholinesterase (BChE) (Equus caballus, UniProt P81908), is 3.4

###

molecular target: acetylcholinesterase (AChE) (Electrophorus electricus); experiment: AChE inhibition; type: biochemical, Electric eel
endpoint.name: pIC50
Entry type: numeric. Quantity: pIC50, the -log10 of concentration in molar units.

Form field pIC50, entry CC(=O)c1c(O)c(C)c(O)c2c1OC1=CC(=O)C(C(C)=O)C(=O)C12C (stereo not shown) : 8.90
